- experimental target: recombinant human ACC2 (Homo sapiens (Human), UniProt O00763)
- Sequence (O00763 27-2458): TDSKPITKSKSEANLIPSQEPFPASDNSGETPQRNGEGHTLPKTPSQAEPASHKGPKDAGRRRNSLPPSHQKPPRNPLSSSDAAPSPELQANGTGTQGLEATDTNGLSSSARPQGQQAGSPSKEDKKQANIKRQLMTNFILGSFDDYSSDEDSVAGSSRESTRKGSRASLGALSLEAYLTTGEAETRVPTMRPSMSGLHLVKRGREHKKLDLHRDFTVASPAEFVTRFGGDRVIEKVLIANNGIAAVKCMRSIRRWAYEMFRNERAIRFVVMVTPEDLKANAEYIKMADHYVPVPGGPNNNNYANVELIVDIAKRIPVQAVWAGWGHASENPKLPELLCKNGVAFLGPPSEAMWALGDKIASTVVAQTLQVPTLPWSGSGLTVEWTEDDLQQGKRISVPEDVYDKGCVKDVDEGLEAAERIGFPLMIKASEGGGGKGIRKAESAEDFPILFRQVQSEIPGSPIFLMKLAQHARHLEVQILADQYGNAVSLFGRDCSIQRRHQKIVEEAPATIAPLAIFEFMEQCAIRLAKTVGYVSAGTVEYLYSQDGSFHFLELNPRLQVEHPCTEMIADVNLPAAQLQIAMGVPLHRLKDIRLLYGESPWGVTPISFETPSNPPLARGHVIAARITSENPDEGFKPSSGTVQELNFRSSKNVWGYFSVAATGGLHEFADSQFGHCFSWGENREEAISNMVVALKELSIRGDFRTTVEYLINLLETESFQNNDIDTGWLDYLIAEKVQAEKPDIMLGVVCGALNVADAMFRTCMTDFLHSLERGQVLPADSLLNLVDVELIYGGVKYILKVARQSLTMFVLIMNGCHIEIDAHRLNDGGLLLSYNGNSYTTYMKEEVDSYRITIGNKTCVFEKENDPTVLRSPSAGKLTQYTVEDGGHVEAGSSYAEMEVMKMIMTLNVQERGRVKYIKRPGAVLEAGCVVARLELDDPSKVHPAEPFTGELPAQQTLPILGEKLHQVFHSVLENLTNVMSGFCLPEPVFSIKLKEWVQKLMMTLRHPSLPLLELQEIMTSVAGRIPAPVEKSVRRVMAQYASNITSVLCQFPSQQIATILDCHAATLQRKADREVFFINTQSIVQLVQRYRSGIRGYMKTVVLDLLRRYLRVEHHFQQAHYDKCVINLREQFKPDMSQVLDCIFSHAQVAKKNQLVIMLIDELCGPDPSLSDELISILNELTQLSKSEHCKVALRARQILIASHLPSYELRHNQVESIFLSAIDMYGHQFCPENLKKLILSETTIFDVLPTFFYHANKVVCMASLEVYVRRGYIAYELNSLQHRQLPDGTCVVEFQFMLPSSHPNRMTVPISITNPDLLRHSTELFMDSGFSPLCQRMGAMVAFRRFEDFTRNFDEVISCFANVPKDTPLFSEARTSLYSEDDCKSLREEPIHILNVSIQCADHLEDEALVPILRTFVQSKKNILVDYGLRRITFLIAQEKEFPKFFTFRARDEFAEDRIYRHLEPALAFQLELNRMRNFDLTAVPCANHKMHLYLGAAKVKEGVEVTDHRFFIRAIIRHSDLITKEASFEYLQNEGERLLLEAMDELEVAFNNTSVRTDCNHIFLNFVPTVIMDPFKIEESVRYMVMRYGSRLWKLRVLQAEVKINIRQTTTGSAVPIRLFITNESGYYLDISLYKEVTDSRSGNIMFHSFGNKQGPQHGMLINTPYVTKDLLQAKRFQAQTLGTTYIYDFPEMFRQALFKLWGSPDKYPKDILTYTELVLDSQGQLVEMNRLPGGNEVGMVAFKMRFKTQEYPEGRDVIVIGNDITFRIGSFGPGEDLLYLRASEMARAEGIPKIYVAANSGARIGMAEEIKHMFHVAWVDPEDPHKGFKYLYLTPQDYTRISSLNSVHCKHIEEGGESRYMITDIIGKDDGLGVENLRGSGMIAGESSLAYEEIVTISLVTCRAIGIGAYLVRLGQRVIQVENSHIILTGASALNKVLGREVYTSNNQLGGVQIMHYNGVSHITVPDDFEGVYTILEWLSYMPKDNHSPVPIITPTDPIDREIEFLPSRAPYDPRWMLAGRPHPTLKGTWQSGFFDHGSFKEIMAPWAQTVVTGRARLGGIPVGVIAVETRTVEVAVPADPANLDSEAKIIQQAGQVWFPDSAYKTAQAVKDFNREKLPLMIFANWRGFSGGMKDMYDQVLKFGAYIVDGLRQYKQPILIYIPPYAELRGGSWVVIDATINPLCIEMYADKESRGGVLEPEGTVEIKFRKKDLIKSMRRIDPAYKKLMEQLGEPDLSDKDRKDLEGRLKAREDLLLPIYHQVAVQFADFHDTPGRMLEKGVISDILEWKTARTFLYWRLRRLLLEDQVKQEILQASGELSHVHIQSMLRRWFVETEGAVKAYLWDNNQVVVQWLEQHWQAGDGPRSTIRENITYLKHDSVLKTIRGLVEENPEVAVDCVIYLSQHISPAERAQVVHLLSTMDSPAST
- assay overview: Measurement of inhibitory activity on human ACC2 (MALDI-TOF MS, acetyl CoA to malonyl CoA conversion)
- Assay type: biochemical
- recorded conditions: Tables 155-159
readout kind: pIC50
In plain terms, pIC50 is the concentration in mol/L turned into minus its base-10 logarithm.

Examples from the recorded data:
- CC(=O)N[C@@H](C)CO[C@H]1C[C@H](COc2nccc(OC3CCCCC3)c2Cl)C1: 7.32
- CC(=O)N[C@@H](C)CO[C@H]1C[C@H](COc2ncnc3c2ccn3CC2CC2)C1: 7.68
- CC(=O)N[C@@H](C)CO[C@H]1C[C@H](COc2ncnc(-n3oc4ccccc4c3=O)c2Cl)C1: 6.94

Consider now this further molecule.
// pIC50 lookup, key: "CO[C@H]1C[C@@H](Oc2nc3ccc(OC[C@H]4C[C@H](OC[C@H](C)NC(C)=O)C4)nc3s2)C1"
7.39

---

Reported IC50 by item:
- experimental target: recombinant human ACC2 (Homo sapiens (Human), UniProt O00763)
- assay overview: Measurement of inhibitory activity on human ACC2 (MALDI-TOF MS, acetyl CoA to malonyl CoA conversion)
- Type: biochemical
- recorded conditions: Tables 155-159
Just the number please, in µM, no unit attached.

- CC(=O)N[C@@H](C)CO[C@H]1CC[C@H](Oc2nc3c(F)cc(OC4CC4)cc3n2C)CC1: 0.004
- COc1nc2ccc(OC[C@H]3C[C@H](OC[C@H](C)NC(C)=O)C3)nc2s1: 0.031

// IC50 lookup, key: "CC(=O)N[C@@H](C)CO[C@H]1C[C@H](COc2ccc3nc(C(C)(C)O)sc3n2)C1"
0.152

Moving on to the next compound: "CC(=O)N[C@@H](C)CO[C@H]1CC[C@H](Oc2cc(C)c3nc(Oc4ccc(F)cc4)n(C)c3n2)CC1"
0.081

Moving on to the next compound: "CC(=O)N[C@@H](C)CO[C@H]1CC[C@H](Oc2nc3c(F)cc(OC4CC4)c(Cl)c3n2C)CC1"
0.002

Moving on to the next compound: "CCOc1nc2ccc(OC[C@H]3C[C@H](OC[C@H](C)NC(C)=O)C3)nc2n1CC"
0.563

Moving on to the next compound: CC(=O)N[C@@H](C)CC(O)[C@@H]1CC[C@@H](Oc2nc3c(F)cc(OCC(F)F)c(F)c3n2C)CO1 (stereo partly shown)
0.49

---

- experimental target: recombinant human ACC2 (Homo sapiens (Human))
- assay overview: Measurement of inhibitory activity on human ACC2 (MALDI-TOF MS, acetyl CoA to malonyl CoA conversion)
- Assay type: biochemical
- recorded conditions: Tables 155-159
So basically, the class depends on measured IC50, and the ranges are bin A = under 0.02 µM, bin B = from 0.02 µM up to 0.07 µM, bin C = 0.07 µM and over

Completed entries (count: 2):
- CC(=O)N[C@@H](C)CO[C@H]1CC[C@H](Oc2ncc3nc(OC4COC4)sc3c2F)CC1: bin B
- CCOc1nc2ccc(OC[C@H]3C[C@H](OC[C@H](C)NC(C)=O)C3)c(F)c2n1C: bin C

Band assignment needed for "CCOc1nc2ccc(OC[C@H]3C[C@@H](OC[C@H](C)NC(C)=O)C3)nc2s1" please.
bin A

Moving on to the next compound: "CC(=O)N[C@@H](C)CO[C@H]1CC[C@H](Oc2cc3sc(OC4CC4)nc3cn2)CC1"
bin B

Moving on to the next compound: "CC(=O)N[C@@H](C)CO[C@]1(C)C[C@@H](COc2ncnc(OCc3ccc(F)cn3)c2Cl)C1"
bin A

Moving on to the next compound: "CC(=O)N[C@@H](C)CO[C@H]1CC[C@H](Oc2nc3c(C#N)cc(OCC(F)F)c(F)c3n2C)CC1"
bin B

Moving on to the next compound: "CC(=O)N[C@@H](C)CO[C@H]1CC[C@H](Oc2ccc3nc(OCCC(F)(F)F)n(C)c3n2)CC1"
bin A

Moving on to the next compound: "CC(=O)N[C@@H](C)CO[C@H]1C[C@H](COc2ncnc(OCc3ccccc3F)c2Cl)C1"
bin A

Moving on to the next compound: "CC(=O)N[C@@H](C)CO[C@H]1CC[C@H](Oc2cc(C)c3nc(N4CC(F)(F)C4)sc3n2)CC1"
bin C

Moving on to the next compound: "CC(=O)N[C@@H](C)CO[C@H]1C[C@H](COc2ccc3nc(OC4CC(F)(F)C4)sc3n2)C1"
bin A

Moving on to the next compound: "CC(=O)N[C@@H](C)CO[C@H]1C[C@H](COc2ccc3nc(C4(F)CC4)sc3c2F)C1"
bin C

Moving on to the next compound: "CCOc1nc2cc(F)c(O[C@H]3CC[C@H](OC[C@H](C)NC(C)=O)CC3)nc2n1C"
bin B

Moving on to the next compound: "CC(=O)N[C@@H](C)CO[C@H]1C[C@H](COc2nccc3c2ccn3CC2CC2)C1"
bin B

Moving on to the next compound: "CC(=O)N[C@@H](C)CO[C@H]1CC[C@H](Oc2ccc3nc(OCC(F)F)n(C)c3n2)CC1"
bin B

---

- experimental target: recombinant human ACC2 (Homo sapiens (Human), UniProt O00763)
- assay overview: Measurement of inhibitory activity on human ACC2 (MALDI-TOF MS, acetyl CoA to malonyl CoA conversion)
- Assay type: biochemical
- recorded conditions: Tables 155-159
pIC50: −log10 of the molar value.
Please enter condition met where pIC50 is greater than or equal to 7, and condition not met where it is lower.

* CC(=O)N[C@@H](C)CO[C@H]1CC[C@H](Oc2cc3sc(OCC(F)(F)F)nc3cn2)CC1 [Compound I-184] | condition met
* COCCOc1ccnc(OC[C@H]2C[C@H](OC[C@H](C)NC(C)=O)C2)c1Cl [Compound I-373] | condition not met
* CCOc1ccc(COc2ncnc(OC[C@H]3C[C@H](OC[C@H](C)NC(C)=O)C3)c2Cl)cc1 [Compound I-407] | condition not met
* CC(=O)N[C@@H](C)CO[C@H]1C[C@H](COc2ncnc(OCc3cc(F)ccn3)c2Cl)C1 [Compound I-360] | condition met

Given the entry C[C@@H](CO[C@H]1CC[C@H](Oc2ccc3nc(C(C)(F)F)sc3c2F)CC1)NS(C)(=O)=O [Compound I-142] , answer whether its pIC50 meets or surpasses 7.
condition not met

Moving on to the next compound: CC(=O)N[C@@H](C)CO[C@H]1CC[C@H](Oc2cc3sc(OCC(C)(C)C#N)nc3cn2)CC1 [Compound I-263]
condition not met

Moving on to the next compound: CC(=O)N[C@@H](C)[C@@H](C)O[C@H]1CC[C@H](Oc2nc3cnc(OC4CC4)c(F)c3n2C)CC1 [Compound I-746]
condition not met

Moving on to the next compound: CC(=O)N[C@@H](C)CO[C@H]1C[C@H](COc2ccc3nc(OC4CC4)n(C)c3n2)C1 [Compound I-475]
condition not met

Moving on to the next compound: CC(=O)N[C@@H](C)CO[C@H]1CC[C@H](Oc2nc3ccc(OC(F)(F)F)cc3n2C)CC1 [Compound I-572]
condition not met

Moving on to the next compound: CC(=O)N[C@@H](C)CO[C@H]1C[C@H](COc2ncnc(OCc3ccc(C#N)cc3)c2Cl)C1 [Compound I-347]
condition met

Moving on to the next compound: CC(=O)N[C@@H](C)CO[C@H]1C[C@H](COc2ccc3nc(Oc4ccc(F)cc4)sc3n2)C1 [Compound I-305]
condition met

Moving on to the next compound: C[C@@H](CO[C@H]1CC[C@H](Oc2nc3c(F)cc(OCC(F)F)c(F)c3n2C)CC1)NC(N)=O [Compound I-670]
condition met

Moving on to the next compound: CC(=O)N[C@@H](C)CO[C@H]1C[C@H](COc2ncnc3c2c(F)cn3CC2CC2(F)F)C1 (stereo partly drawn) [Compound I-440]
condition met

Moving on to the next compound: CC(=O)N[C@@H](C)CO[C@H]1CC[C@H](Oc2ccc3nc(C4(F)CC4)sc3c2F)CC1 [Compound I-117]
condition met

Moving on to the next compound: CC(=O)N[C@@H](C)CO[C@H]1C[C@H](COc2ncnc(OCc3ccccn3)c2Cl)C1 [Compound I-435]
condition met

Moving on to the next compound: CC(=O)N[C@@H](C)CO[C@H]1C[C@H](COc2nccc(N3CC(F)(F)C3)c2Cl)C1 [Compound I-323]
condition not met

Moving on to the next compound: CC(=O)N[C@@H](C)CO[C@H]1CC[C@H](Oc2ccc3nc(OCC(F)F)sc3c2F)CC1 [Compound I-123]
condition met

Moving on to the next compound: COc1cccc(COc2ncnc(OC[C@H]3C[C@H](OC[C@H](C)NC(C)=O)C3)c2Cl)n1 [Compound I-404]
condition not met

Moving on to the next compound: CC(=O)N[C@@H](C)CO[C@H]1C[C@H](COc2ncnc(-c3ccc(F)cc3)c2C)C1 [Compound I-417]
condition not met

Moving on to the next compound: CC(=O)N[C@@H](C)CO[C@H]1C[C@H](COc2nc3sc(OC(C)C)nc3cc2F)C1 [Compound I-182]
condition met

Moving on to the next compound: CC(=O)N[C@@H](C)CO[C@H]1CC[C@H](Oc2nc3c(Br)cc(OCc4ccccc4)cc3n2C)CC1 [Compound I-738]
condition met

Moving on to the next compound: CC(=O)N[C@@H](C)CO[C@]1(C)C[C@@H](COc2nccc(-c3ccc(F)cc3)c2Cl)C1 [Compound I-400]
condition met

Moving on to the next compound: CC(=O)N[C@@H](C)CO[C@H]1C[C@H](COc2ncnc(OCc3ccc(F)cc3)c2Cl)C1 [Compound I-390]
condition met
